assayNotes: Selectivity index, ratio of CC50 for human MT4 cells to EC50 for HIV1 RES056 harboring reverse transcriptase K103N/Y181C mutant
Type: toxicity, cell-based
testParameters: read-out: Ratio CC50/EC50
# selectivity ratio listing for each entry below

| smilesText | selectivity ratio |
| --- | --- |
| O=C(CSc1nncnc1-c1cccc2ccccc12)Nc1ccccc1Cl | < 1 |
| O=C(CSc1nncnc1-c1cccc2ccccc12)N1CCc2ccccc2C1 | < 1 |
| O=C(CSc1nncnc1-c1cccc2ccccc12)Nc1ccccc1F | < 1 |
| Cc1cn([C@H]2C[C@H](N=[N+]=[N-])[C@@H](CO)O2)c(=O)[nH]c1=O | 29600 |
| Cc1ccccc1NC(=O)CSc1nncnc1-c1ccccc1Cl | < 1 |

###

assayNotes: Selectivity index, ratio of CC50 for human MT4 cells to EC50 for HIV1 3B
Assay type: toxicity, cell-based
testParameters: read-out: Ratio CC50/EC50
Reported selectivity ratio values for a set of compounds
assayEndpoint: selectivity ratio

| smilesText | valueComparator | quantitativeResult |
| --- | --- | --- |
| Cc1ccc(NC(=O)CSc2nncnc2-c2ccccc2Cl)c(Br)c1 | = | 253 |
| Cc1ccccc1NC(=O)CSc1nncnc1-c1ccccc1Cl | = | 465 |
| COC(=O)c1ccc(NC(=O)CSc2nncnc2-c2ccccc2Cl)c(Br)c1 | = | 311 |
| O=C(CSc1nncnc1-c1cccc2ccccc12)Nc1ccc([N+](=O)[O-])cc1Cl | < | 1 |
| Nc1ccn([C@H]2CC[C@@H](CO)O2)c(=O)n1 | = | 68 |
| CC(=O)c1ccc(NC(=O)CSc2nncnc2-c2ccccc2Cl)c(Br)c1 | = | 404 |
| O=C(CSc1nncnc1-c1cccc2ccccc12)Nc1ccccc1 | = | 101 |
| O=C(CSc1nncnc1-c1ccccc1Cl)c1ccc(Cl)c(Cl)c1 | = | 5 |
| COC(=O)c1sccc1NC(=O)CSc1nncnc1-c1ccccc1Cl | = | 35 |
| O=C(CSc1nncnc1-c1ccccc1Cl)Nc1ccccc1Br | = | 792 |
| O=C(CSc1nncnc1-c1cccc2ccccc12)N1CCc2ccccc2C1 | = | 17 |
| O=C(CSc1nncnc1-c1cccc2ccccc12)Nc1cccnc1Cl | = | 751 |
| Cc1ccc2sc(NC(=O)CSc3nncnc3-c3ccccc3Cl)nc2c1 | < | 1 |
| Cc1ccc(NC(=O)CSc2nncnc2-c2cccc3ccccc23)c([N+](=O)[O-])c1 | = | 3170 |
| COC(=O)c1ccc(NC(=O)CSc2nncnc2-c2cccc3ccccc23)c(Br)c1 | = | 2560 |
| O=C(CSc1nncnc1-c1cccc2ccccc12)Nc1ccccc1[N+](=O)[O-] | = | 3260 |
| O=C(CSc1nncnc1-c1ccccc1Cl)Nc1ccccc1[N+](=O)[O-] | = | 2160 |
| O=C(CSc1nncnc1-c1cccc2ccccc12)Nc1ccc(Cl)cc1Cl | < | 1 |
| O=C(CSc1nncnc1-c1cccc2ccccc12)Nc1ccccc1Br | = | 503 |
| O=C(CSc1nncnc1-c1cccc2ccccc12)Nc1ccccc1Cl | = | 470 |
| O=C(CSc1nncnc1-c1ccccc1Cl)Nc1ccccn1 | = | 51 |
| NS(=O)(=O)c1ccc(NC(=O)CSc2nncnc2-c2cccc3ccccc23)c(Br)c1 | = | 1290 |

###

Below, each of the molecules is paired with its reported CC50 value.
assayNotes: Cytotoxicity against human MT4 cells by MTT assay
Type: cell-based
assayEndpoint: CC50 (µM)

| molecule | unitDescriptor | valueComparator | quantitativeResult |
| --- | --- | --- | --- |
| O=C(CSc1nncnc1-c1cccc2ccccc12)Nc1ccccc1F | µM | = | 65 |
| O=C(CSc1nncnc1-c1ccccc1Cl)Nc1ccccc1F | µM | = | 98 |
| O=C(CSc1nncnc1-c1ccccc1Cl)c1ccc(Cl)c(Cl)c1 | µM | = | 33 |
| COC(=O)c1ccc(NC(=O)CSc2nncnc2-c2cccc3ccccc23)c(Br)c1 | µM | = | 173 |
| Cc1ccccc1NC(=O)CSc1nncnc1-c1cccc2ccccc12 | µM | = | 158 |
| O=C(CSc1nncnc1-c1ccccc1Cl)N1CCCc2ccccc21 | µM | = | 35 |
| Cc1ccccc1NC(=O)CSc1nncnc1-c1ccccc1Cl | µM | = | 142 |
| CC(C)Nc1cccnc1N1CCN(C(=O)c2cc3cc(NS(C)(=O)=O)ccc3[nH]2)CC1 [DELAVIRDINE] | µM | > | 36 |
| Cc1ccc(NC(=O)CSc2nncnc2-c2cccc3ccccc23)c(Br)c1 | µM | = | 166 |
| O=C(CSc1nncnc1-c1ccccc1Cl)c1ccc(Br)cc1Br | µM | = | 28 |
| Cc1cnc(NC(=O)CSc2nncnc2-c2ccccc2Cl)c(Br)c1 | µM | = | 144 |
